Entry source: PubChem BioAssay AID524

tested.on: cAMP-dependent protein kinase catalytic subunit alpha (Homo sapiens) (UniProt P17612)
experimental.details: PKA catalytic subunit kinase inhibition – biochemical, ATP-depletion luminescence, Kemptide substrate, primary screen (AID 524)
measurement.setup: PKA Kemptide phosphorylation, Kinase-Glo ATP luminescence; at 6 µM; active compounds read high
Screen size: about 65,000 compounds; about 95 (0.1%) were called active. Many of the other results were omitted from the sample, so actives are more common in it than they were.
Measured inhibition by item
Kindly provide the numeric value in % only, without the unit symbol.

As a guide, the following entries are already answered.
N#Cc1nc(COc2ccc(Cl)cc2)oc1N1CCCC1 : -3
COc1cccc2cc(C(C)N(CCCN3CCOCC3)C(=O)Nc3ccc(Cl)cc3)oc12 (stereo not given) : 0.5
COc1cc(Cl)c(S(=O)(=O)n2cnc(C)c2)cc1Cl : 4.9
N#C/C=C1\Sc2ccccc2C(=O)N1CC(=O)N1CCN(S(=O)(=O)c2ccccc2)CC1 : 6.8
CCCCCN(C(=O)NC(=O)Nc1ccccc1OC)S(C)(=O)=O : 8.1
CC(C)C(=O)Nc1c(C(=O)c2ccc(F)cc2)oc2ccccc12 : 2.9
CCCOc1ccc(Cn2c(O)cc(=O)[nH]c2=O)cc1 : 7.5
CCOC(=O)CN1CC23C=CC(O2)C(C(=O)Nc2ccc(F)cc2)C3C1=O (stereo not given) : 2.5

Now for a further molecule.
stdin: For the molecule CC(C)CNS(=O)(=O)c1ccc(OCC(=O)Nc2ccc3c(c2)OCO3)c(Cl)c1 , give its reported inhibition.
stdout: 4.9
